This collection of values is drawn from ChEMBL document CHEMBL1201862.

# Test system: Malme-3M
# experimental_details: NCI tumour cell line growth inhibition, 48 h
Active and inactive are the calls of the source. No stated cut-off is given here; in the data, active = GI50 up to about 1.1 µM and inactive = higher.
Outcome codes: class 1 = active, class 0 = inactive

                                    compound  label_value
 0  CCC1(C(=O)OC)CCc2c(OC)ccc(OC)c2C1=O (configuration not stated)      class 0
 1  O=[N+]([O-])c1ccc(/C=N/C23CC4CC(CC(C4)C2)C3)cc1      class 0
 2        O=[N+]([O-])c1cc(Cl)cc2cc(Br)cnc12      class 0
 3  Clc1ccc(Oc2ccc(/N=C/c3ccc(Cl)cc3Cl)cc2Cl)cc1      class 0
 4   N#C[C@@H](c1ccccn1)c1ncccc1[N+](=O)[O-]      class 0
 5  CC1=NN(c2ccc(S(=O)(=O)O)cc2)C2(C1)C(Cl)C(=O)N2c1nc2ccccc2s1 (configuration not stated)      class 0
 6  COc1nc2c(c(=O)[nH]1)N=C(c1ccccc1)CC(c1ccccc1)N2 (configuration not stated)      class 0
 7              Cc1n[nH]c(=O)n1/N=C/c1ccncc1      class 0
 8  O=C(O)C(C1NCCS1)N1Cc2ccccc2C1 (configuration not stated)      class 0
 9  COC1(OC)CC2C(=O)N(Cc3ccccc3)C1C(S(=O)(=O)c1ccccc1)C2S(=O)(=O)c1ccccc1 (configuration not stated)      class 0
10  CCCCNC(=S)Nc1nc(C(=O)NNC(=S)NCc2ccccc2)cs1      class 0
11  Cc1cc2nc(-c3c(F)cccc3F)n(Cc3c(F)cccc3F)c2cc1C      class 0
12  CNC(Cc1ccccc1)c1cccc(OC)c1O (configuration not stated)      class 0
13              COc1cc(CO)cc2c1[nH]c1ccccc12      class 0
14  COc1cc(C2c3cc4c(cc3[C@@H](Nc3cccc(CO)c3)C3COC(=O)[C@H]23)OCO4)cc(OC)c1O (some centres not stated)      class 0
15  CC(=O)NNc1nc(C)c(C(=O)NNC(=O)C(=O)Nc2ccc(Cl)cc2Cl)s1      class 0
16  Cc1ccc(S(=O)(=O)N2CCCC2C(=O)O[C@H]2CC[C@H]3CC=C[C@H]32)cc1 (some centres not stated)      class 0
17  N/N=C(\C(=O)Nc1ccc([N+](=O)[O-])cc1)C(C1=Nc2cc([N+](=O)[O-])ccc2NC1)[N+](=O)[O-] (configuration not stated)      class 0
18  COC(=O)C1CC2CCC1(O[Si](C(C)C)(C(C)C)C(C)C)C(O)C2 (configuration not stated)      class 0
19  CC[C@H]1OC([C@H](O)C/C=C\C#C[Si](C)(C)C)C/C=C\C[C@H]1O[Si](C)(C)C(C)(C)C (some centres not stated)      class 0
20  COC(=O)N[C@H](C(=O)NC(OCc1ccccc1)C1COC(C)(C)O1)C(C)O[Si](C)(C)C(C)(C)C (some centres not stated)      class 0
21  CC(C)=CCC/C(C)=C/COC(C)(C)C1=CCC(C)CC1.CC(C)=CCC/C(C)=C/COC1CC(C)CCC1=C(C)C (configuration not stated)      class 0
22  CCN1C(=O)C(C)S/C1=N\NC(=O)CSc1nc2ccccc2c(=O)n1CC (configuration not stated)      class 0
23  Cc1nn(C(=O)c2ccc(Cl)cc2)c2c1C(c1ccccc1O)SC(=N)N2 (configuration not stated)      class 0
24  O=c1oc2ccc([N+](=O)[O-])cc2c(Nc2ccc3c(c2)S(=O)(=O)c2ccccc2O3)c1[N+](=O)[O-]      class 0
25  CN(C)/C=C/C(=O)c1cccc(C(=O)/C=C/N(C)C)n1      class 0
26  CCCCCCc1cc2cc(-c3csc(CC#N)n3)c(=O)oc2cc1O      class 0
27    O=C(c1ccsc1)c1cc2c(s1)C(=O)c1ccsc1C2=O      class 1
28        Oc1[nH]c(NCc2ccc(Cl)cc2)nc2ncnc1-2      class 0
29  C[C@H](NS(=O)(=O)c1ccc(NC(=O)c2ccccc2)cc1)C(=O)O      class 0
30                       O=Cc1coc2ccccc2c1=O      class 0
31       CCOC(=O)C(=O)N/N=C1\C(=O)Nc2ccccc21      class 0
32  COC(=O)N/N=C(/CCC(=O)Nc1ccc(C)c(C)c1)CC(=O)C(C)(C)C      class 0
33  Cc1c(CN2CCOCC2)c(CN2CCOCC2)c(C)n1-c1ccc(Cl)cn1      class 0
34  Oc1ccccc1C1=NOC(c2ccc(C(F)(F)F)cc2)C1 (configuration not stated)      class 0
35  ClC/C=C/COC1CCCCO1 (configuration not stated)      class 0
36  CCCCC1Nc2ccccc2-c2ccnc(Cl)c21 (configuration not stated)      class 0
37  CCc1ncc(C(C)(O)c2ccccc2)n1Cc1ccccc1 (configuration not stated)      class 0
38  COc1cccc(/C(CC(O)(C(F)(F)F)C(F)(F)F)=N\N(C)C)c1      class 0
39  C[C@]12CC[C@H](O)C[C@H]1CC[C@@H]1[C@@H]2CC[C@]2(C)[C@@H](C3=CC(=O)OC3)[C@@H](O)C[C@]12O      class 0
40  CC1(C)CCCCCCC2OC2CCCCCC(C)(C)C1=O (configuration not stated)      class 0
41   O=c1oc2ccccc2c(-c2ccc(O)cc2)c1Oc1ccccc1      class 0

====

# Tested on: OVCAR-5
# experimental_details: NCI tumour cell line growth inhibition, 48 h
Calls of active or inactive are those of the source. No stated cut-off is given here; in the data, active = GI50 up to about 1.1 µM and inactive = higher.
Measured GI50 accompanies every entry in the list below.
observed_property: GI50

                                    molecule       value_measured
 0  O=C(O)C(C1NCCS1)N1Cc2ccccc2C1 (stereo unspecified)  > 100 µM (inactive)
 1  CCN(CC)CCO[Si](OCCN(CC)CC)(OCCN(CC)CC)OCCN(CC)CC  > 100 µM (inactive)
 2  CC(=O)Oc1cc(C)c(OC(C)=O)c2c1[C@H]1CC[C@]3(C)[C@@H](OC(C)=O)CC[C@H]3[C@@H]1CC2   21.5 µM (inactive)
 3        O=C1C=C(OCCCl)C(=O)c2c(O)ccc(O)c21   1.59 µM (inactive)
 4               Nc1nc(O)c2[nH]cnc2[n+]1[O-]  > 100 µM (inactive)
 5                  CSc1sc(C)cc1-c1nsc(=O)o1  > 100 µM (inactive)
 6  Cc1cc2c(cc1C)[n+]([O-])c(C(=O)C/C(=N/NC(=S)NN)C(=O)Nc1cccc(C(F)(F)F)c1)c[n+]2[O-]  > 100 µM (inactive)
 7     COc1ccc(/C(C#N)=C(/N)SCc2ccccc2Cl)cc1   18.2 µM (inactive)
 8      CCOc1ccccc1/N=C\c1c2ccccc2cc2ccccc12   25.8 µM (inactive)
 9  CC(C)(Cl)C(Br)CC/C(=C/CCl)CBr.CC(C)(Cl)C(Br)CC/C(=C\CCl)CBr (stereo unspecified)   8.89 µM (inactive)
10  O=C(O/N=c1/ccc(=O)/c(=N\OC(=O)c2ccccc2)c1=O)c1ccccc1  > 100 µM (inactive)
11   O=c1oc2ccccc2c(-c2ccc(O)cc2)c1Oc1ccccc1   18.8 µM (inactive)
12  CCOC(=O)C1=C(C)OC2(O)C=CC(O)=C3C(=O)N(c4ccccc4)C(=O)C312 (stereo unspecified)   58.5 µM (inactive)
13  O=C1/C(=C/c2cccs2)N=C(c2ccccc2)N1c1nc2ccccc2s1  > 100 µM (inactive)
14                 CS(=O)(=O)Nc1ccc2ccccc2c1  > 100 µM (inactive)
15  NS(=O)(=O)c1ccc(NC2=CC(=O)C(=O)c3ccccc32)cc1  > 100 µM (inactive)
16  CC1(C)OC2C(CO)OC(n3ccc(=O)[nH]c3=O)C2O1 (stereo unspecified)  > 100 µM (inactive)
17  CC(=O)NNc1nc(C)c(C(=O)NNC(=O)C(=O)Nc2ccc(Cl)cc2Cl)s1   55.1 µM (inactive)
18  COc1ccc2c(c1)CC[C@@H]1[C@@H]2CC[C@]2(C)C(=O)/C(=C/c3ccc(OC)c(OC)c3)C[C@@H]12  > 100 µM (inactive)
19                    Cc1nc2ccccc2nc1N1CCCC1  > 100 µM (inactive)
20  COC(=O)N[C@H](C(=O)NC(OCc1ccccc1)C1COC(C)(C)O1)C(C)O[Si](C)(C)C(C)(C)C (stereo partly specified)  > 100 µM (inactive)

====

# Tested on: MCF7
# experimental_details: NCI tumour cell line growth inhibition, 48 h
Activity calls are given as the source filed them. No stated cut-off is given here; in the data, active = GI50 up to about 1.1 µM and inactive = higher.
Outcome codes: active, inactive

molecule	study_target	label_value
Cc1nn(C(=O)c2ccncc2)c2c1C(c1cccc([N+](=O)[O-])c1)SC(=N)N2 (stereo unspecified)	MCF7	inactive
O=C(O)CN1CCNCCN(CP(=O)(O)O)CC1	MCF7	inactive
N=C(N)NC(=N)Nc1c(F)c(F)c(F)c(F)c1F	MCF7	inactive
COC(=O)N[C@@H]1C[C@H]2CC[C@]1(O[Si](C(C)C)(C(C)C)C(C)C)C(=O)C2	MCF7	inactive
Brc1cc(CCOC2CCCCO2)c(-c2sccc2CCOC2CCCCO2)s1 (stereo unspecified)	MCF7	inactive
COC(=O)[C@]1(c2cc3ccccc3n2S(=O)(=O)c2ccccc2)CC2CN(C(C)=O)C1CC2=O (stereo partly specified)	MCF7	inactive
C/C(=N/NC(=S)Nc1cccc(Cl)c1)c1ccccn1	MCF7	active
Cc1ccc(O)c(C2=CC3=NNC(=O)C3C(c3cccc(Cl)c3)C2)c1 (stereo unspecified)	MCF7	inactive
COc1cccc(C2c3cc4c(cc3OC(N3CCOCC3)C2C)OCO4)c1 (stereo unspecified)	MCF7	inactive
COc1ccccc1NC1=NCC(C)S1 (stereo unspecified)	MCF7	inactive
O=c1cc(O)c1=O	MCF7	inactive
O=[N+]([O-])c1ccc(/C=C\c2ccc3c(c2)OCO3)c([N+](=O)[O-])c1	MCF7	inactive
CCCCNc1nc(N)nc(Nc2ccc(Br)cc2)c1N=O	MCF7	inactive
CC(=O)OCC1OC(Oc2cc(C)c(O)cc2C/C=C(\C)CC/C=C(\C)C[C@@H](C=C(C)C)OC(C)=O)C(O)C(OC(C)=O)C1OC(C)=O (stereo partly specified)	MCF7	inactive
Cc1cc2nc(-c3c(F)cccc3F)n(Cc3c(F)cccc3F)c2cc1C	MCF7	inactive
CC(C)CCNc1ncnc2[nH]ncc12	MCF7	inactive
CCSc1nc(=S)n(-c2ccccc2)c(C)c1C(C)=O	MCF7	inactive
O=C1c2c(O)cc(O)cc2OC(c2ccc(O)cc2O)C1O (stereo unspecified)	MCF7	inactive
N#Cc1ccc(Oc2nc3ccccc3nc2-c2ccccc2)cc1	MCF7	inactive
CC(=O)O[C@@H]1C[C@@]23C[C@@]24CC[C@H](OC2OCC(O)C(O)C2O)C(C)(C)[C@@H]4CC=C3[C@]2(C)C[C@@H]3OC4(C[C@@H](C)[C@@H]3[C@@]12C)OC(O)[C@@]1(C)O[C@@H]41 (stereo partly specified)	MCF7	inactive
CC1=CC(=O)CC2(C)CCC(C(C)CC(=O)CC(C)C)CC12 (stereo unspecified)	MCF7	inactive
